System: ATP;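 also: ATP exposure 15 min at 22 °C before imaging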
Assay Details: switch fluorescence ratio, 500 uM ATP over buffer (Cy3 cluster intensity, sum of 5 cycles each) (fold (ratio)); higher = stronger signal-on switching upon ATP binding; sequences stand for … in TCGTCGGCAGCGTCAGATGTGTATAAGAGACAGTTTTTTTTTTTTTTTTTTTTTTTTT…TC
Reported Conditions: aptamer strand: ATP DNA aptamer (quencher-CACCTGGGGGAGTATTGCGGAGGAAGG + anchor), 100 nM annealed; ATP concentration: 500 uM
Reported Endpoint: switch fluorescence ratio

# Sequence Data, Study Target, Reported
rows = [
    ("TACCCGGGTT", "ATP", 1.11),
    ("TTTCTGTAAT", "ATP", 1.05),
    ("GCATTAGTAT", "ATP", 0.935),
    ("AGCTGACTAT", "ATP", 1.06),
    ("TGGTAGCAGT", "ATP", 0.989),
    ("GGGCGCATCG", "ATP", 0.999),
    ("TAGGGGAATA", "ATP", 1.01),
    ("TGTCAAAAAG", "ATP", 1),
    ("CTTTGATTAG", "ATP", 0.984),
    ("TAGCGTCTGT", "ATP", 0.983),
    ("CACTCGCCCG", "ATP", 1.11),
    ("GGGGACCTGG", "ATP", 1),
    ("GGTAGAGATT", "ATP", 1.02),
    ("TAATTAATAG", "ATP", 0.997),
    ("GTTGGCTTGG", "ATP", 1.02),
    ("CTGTACGACA", "ATP", 1.18),
    ("GTTTTAGTCC", "ATP", 1.01),
    ("GGGCCGTTTG", "ATP", 1),
    ("ACTCATGTTG", "ATP", 0.982),
    ("TAGATAGAGT", "ATP", 0.994),
    ("TTTACAGATT", "ATP", 0.982),
    ("TGACTTGAGC", "ATP", 1.01),
    ("TTTTTGTT", "ATP", 0.99),
    ("CGTAGCATCG", "ATP", 1.1),
    ("AGGAGAAGGG", "ATP", 0.985),
    ("GGAACAGCTT", "ATP", 0.983),
    ("AAGCGGACGG", "ATP", 0.954),
    ("TTGTTTACCC", "ATP", 0.971),
    ("ATTCTCTGGT", "ATP", 1.01),
    ("AGTGGGAGTG", "ATP", 0.983),
    ("GTTTTTTTAG", "ATP", 1),
    ("AGAATAAGAC", "ATP", 1.02),
    ("AAGGTCTATT", "ATP", 0.998),
    ("TTACACAAAA", "ATP", 1),
    ("CCATTTTTGC", "ATP", 1),
    ("GCCTCAGACA", "ATP", 1.05),
    ("TTATGGGATT", "ATP", 0.993),
]

====

Tested on: ATP;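 also: ATP exposure 15 min at 22 °C before imaging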
Assay Details: switch fluorescence ratio, 500 uM ATP over buffer (Cy3 cluster intensity, sum of 5 cycles each) (fold (ratio)); higher = stronger signal-on switching upon ATP binding; sequences stand for … in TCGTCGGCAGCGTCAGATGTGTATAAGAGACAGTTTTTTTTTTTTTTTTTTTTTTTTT…TC
Reported Conditions: aptamer strand: ATP DNA aptamer (quencher-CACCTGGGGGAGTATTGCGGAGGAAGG + anchor), 100 nM annealed; ATP concentration: 500 uM
Reported Endpoint: switch fluorescence ratio

# Sequence Data, Reported
records = [
    ("GGGAGGGAGC", 1.02),
    ("TTTGGAGGAT", 0.978),
    ("TTTTGGGGAG", 1.02),
    ("AGTAAATAGT", 1),
    ("TGGGAAGGGG", 0.998),
    ("GTAGGGGGTG", 1.02),
    ("GTGGACCAGT", 0.972),
    ("CAAGTAAGTT", 0.988),
    ("GATTTTTTAT", 0.999),
    ("TATCTACAAT", 1.01),
    ("AAGAAGAACA", 1.02),
    ("CATAAGTTAT", 1.02),
    ("AGGCTAACCG", 0.985),
    ("TTCGGGATGA", 1),
    ("CAATGGTTTG", 1),
]
